Taken from patent US20190248900A1.

- Target or system: T1, M2-2
- T1 construct: also called PD1 mutant M2-2
- Test summary: ELISA, 1 ug/ml
Readout type: OD490

What value of OD490 has been recorded for this entry: PD1-52E8 (antibody, V domains shown, scFv-phage in the screening ELISA; whole IgG in the other assays) VH: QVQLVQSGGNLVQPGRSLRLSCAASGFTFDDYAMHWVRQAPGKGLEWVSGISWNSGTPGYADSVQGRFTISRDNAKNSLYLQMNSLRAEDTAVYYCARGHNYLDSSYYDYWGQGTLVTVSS VL: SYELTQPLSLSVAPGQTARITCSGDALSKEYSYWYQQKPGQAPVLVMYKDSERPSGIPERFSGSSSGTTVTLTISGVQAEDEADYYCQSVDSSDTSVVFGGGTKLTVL 3.4

What measured OD490 goes with PD1-41C9 (antibody, V domains shown, scFv-phage in the screening ELISA; whole IgG in the other assays) VH: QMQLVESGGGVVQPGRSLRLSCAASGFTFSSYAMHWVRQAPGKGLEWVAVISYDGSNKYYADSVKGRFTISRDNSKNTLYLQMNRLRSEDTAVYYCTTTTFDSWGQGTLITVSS VL: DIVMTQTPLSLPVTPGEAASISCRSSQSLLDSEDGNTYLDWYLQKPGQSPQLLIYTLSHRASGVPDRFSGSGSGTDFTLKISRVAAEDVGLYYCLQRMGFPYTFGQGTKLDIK ? 3.2

Which value of OD490 has been reported for PD1-45D6 (antibody, V domains shown, scFv-phage in the screening ELISA; whole IgG in the other assays) VH: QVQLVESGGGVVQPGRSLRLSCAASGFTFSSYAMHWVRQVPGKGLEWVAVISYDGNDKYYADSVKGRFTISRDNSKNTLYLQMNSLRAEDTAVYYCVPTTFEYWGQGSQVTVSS VL: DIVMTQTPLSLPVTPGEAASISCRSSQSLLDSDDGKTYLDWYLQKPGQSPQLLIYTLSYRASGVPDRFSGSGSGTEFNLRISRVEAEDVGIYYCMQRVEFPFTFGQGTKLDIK in the records? 3.8

For the binder PD1-49A2 (antibody, V domains shown, scFv-phage in the screening ELISA; whole IgG in the other assays; also called Parent 49A2) VH: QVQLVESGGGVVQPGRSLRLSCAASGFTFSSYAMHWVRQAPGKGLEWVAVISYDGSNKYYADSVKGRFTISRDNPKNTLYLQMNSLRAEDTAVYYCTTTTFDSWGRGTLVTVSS VL: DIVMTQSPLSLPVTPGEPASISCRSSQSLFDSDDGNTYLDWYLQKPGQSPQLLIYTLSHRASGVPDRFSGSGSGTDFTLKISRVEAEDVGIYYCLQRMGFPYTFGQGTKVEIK , what OD490 is on record? 3.8
